Data provenance: patent US8524917B2

Target: human S1P3 receptor (Homo sapiens (Human))
Test: Activation or block of activation of human S1P3 receptor, Ca+2 FLIPR assay
Assay type: cell-based
Conditions: T24 cells stably expressing the human S1P3 receptor; FLIPR Ca+2 response; 0.61 nM to 10,000 nM; read-out: S1P3 IC50
pIC50: −log10 of the molar value.

{"columns": ["compound", "pIC50"],
 "data": [
  ["CC(C)Oc1ccc2c(C(=O)NCc3ccc(F)c(F)c3)c(CN3CCCC3)n(Cc3ccccn3)c2c1 [Compound 175]", 5.96],
  ["CC(C)OC(=O)c1ccc2c(C(=O)NCc3ccc(F)c(F)c3)c(C(C)C)n(Cc3ccccc3)c2c1", 7.35],
  ["CC(C)c1c(C(=O)NCc2ccc(C(F)(F)F)nc2)c2ccc(OC3CCCC3)cc2n1Cc1ccccn1 [Compound 142]", 7.32],
  ["CCOC(=O)c1ccc2c(C(=O)NCc3ccc(F)c(F)c3)c(C(C)C)n(Cc3ncco3)c2c1 [Compound 47]", 6.46],
  ["CC(C)c1c(C(=O)NCc2ccc(F)cc2)c2ccc(NC3CCC3)cc2n1Cc1ccccc1 [Compound 195]", 7.29],
  ["CC(C)c1c(C(=O)NCc2ccc(F)c(F)c2)c2ccc(Oc3nccs3)cc2n1Cc1ccccn1 [Compound 150]", 8.30],
  ["CC(C)Oc1ccc2c(C(=O)NCc3ccc(F)c(F)c3)c(C(C)O)n(Cc3ccccn3)c2c1 (centres unmarked) [Compound 108]", 7.82],
  ["CC(C)c1c(C(=O)NCc2ccc(F)c(F)c2)c2ccc(OC3CCOC3)cc2n1Cc1ccccc1 (centres unmarked) [Compound 19]", 8.22],
  ["CCCCOC(=O)c1ccc2c(C(=O)NCc3ccc(F)c(F)c3)c(C(C)C)n(Cc3ccccc3)c2c1", 8.40],
  ["CC(C)c1c(C(=O)NCc2cc(F)cc(F)c2)c2ccc(C3=N[C@@H](C)CO3)cc2n1Cc1ccccn1 [Compound 84]", 7.40],
  ["CCCNCc1ccc2c(C(=O)NCc3ccc(F)c(F)c3)c(C(C)C)n(Cc3ccccc3)c2c1", 5.59]
]}

====

S1P3 (% inh) reference
Biological target: human S1P3 receptor (Homo sapiens (Human), UniProt Q99500)
Sequence (Q99500 whole entry): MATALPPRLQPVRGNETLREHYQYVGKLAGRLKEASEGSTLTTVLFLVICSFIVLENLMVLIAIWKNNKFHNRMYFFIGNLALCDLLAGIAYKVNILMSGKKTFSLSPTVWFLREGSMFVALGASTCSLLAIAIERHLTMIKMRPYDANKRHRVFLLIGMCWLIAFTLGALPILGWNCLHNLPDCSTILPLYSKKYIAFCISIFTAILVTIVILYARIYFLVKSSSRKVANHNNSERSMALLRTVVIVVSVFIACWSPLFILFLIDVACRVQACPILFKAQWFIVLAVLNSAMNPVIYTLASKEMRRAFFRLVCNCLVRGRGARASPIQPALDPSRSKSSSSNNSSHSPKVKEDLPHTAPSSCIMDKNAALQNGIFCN
Experiment: Activation or block of activation of human S1P3 receptor, Ca+2 FLIPR assay
Format: cell-based

{"columns": ["compound", "S1P3 (% inh)"],
 "data": [
  ["CC(C)c1c(C(=O)NCc2ccc(F)c(F)c2)c2ccc(NC3CCC3)cc2n1Cc1ccccc1", "13 nM (100) %"],
  ["CCOC(=O)c1ccc2c(C(=O)NCc3cccc(F)c3)c(C(C)C)n(Cc3ccccn3)c2c1", "174 nM (100) %"],
  ["CC(C)c1c(C(=O)NCc2cncc(F)c2)c2ccc(NC3CCCC3)cc2n1Cc1ccccc1", "163 nM (100) %"],
  ["CCOC(=O)c1ccc2c(C(=O)NCc3cccnc3)c(C(C)C)n(Cc3ccccc3)c2c1", "187 nM (95) %"],
  ["CC(C)c1c(C(=O)NCc2cncc(F)c2)c2ccc(C3=N[C@@H](C)CO3)cc2n1Cc1ccccc1", "43 nM (99) %"],
  ["CC(=NO)c1c(C(=O)NCc2ccc(F)c(F)c2)c2ccc(OC(C)C)cc2n1Cc1ccccn1 (stereo in doubt)", "384 nM (100) %"],
  ["CC(C)c1c(C(=O)NCc2ccc(F)c(F)c2)c2ccc(OC(=O)C(C)(C)C)cc2n1Cc1ccccc1", "4 nM (99) %"],
  ["CC(C)c1c(C(=O)NCc2ccc(F)cc2)c2ccc(NC3CCCC3)cc2n1Cc1ccccc1", "70 nM (100) %"],
  ["CO/N=C(\\C)c1ccc2c(C(=O)NCc3ccc(F)c(F)c3)c(C(C)C)n(Cc3ccccc3)c2c1", "147 nM (100) %"],
  ["CC(C)c1c(C(=O)NCc2cc(F)cc(F)c2)c2ccc(NC3CCC3)cc2n1Cc1ccccc1", "20 nM (100) %"],
  ["CC(C)COc1ccc2c(C(=O)NCc3cccnc3)c(C(C)C)n(Cc3ccccn3)c2c1", "124 nM (99) %"],
  ["CCC(=O)Oc1ccc2c(C(=O)NCc3ccc(F)c(F)c3)c(C(C)C)n(Cc3ccccc3)c2c1", "20 nM (100) %"],
  ["CC(C)c1c(C(=O)NCc2ccc(F)c(F)c2)c2ccc([N+](=O)[O-])cc2n1Cc1ccccc1", "242 nM (90) %"],
  ["CC(C)c1c(C(=O)NCc2ccc(F)c(F)c2)c2ccc(OCc3ccccc3)cc2n1Cc1ccccc1", "260 nM (100) %"],
  ["CCCCCCOc1ccc2c(C(=O)NCc3ccc(F)c(F)c3)c(C(C)C)n(Cc3ccccc3)c2c1", "3.1 μM (96) %"],
  ["CC(C)c1c(C(=O)NCc2ccc(F)c(F)c2)c2ccc(OC3CCOCC3)cc2n1Cc1ccccc1", "36 nM (99) %"],
  ["COCOc1ccc2c(C(=O)NCc3ccc(F)c(F)c3)c(C(C)C)n(Cc3ccccc3)c2c1", "39 nM (100) 13 nM %"],
  ["CC(C)c1c(C(=O)NCc2ccc(F)c(F)c2)c2ccc(OC3CCCO3)cc2n1Cc1ccccc1 (stereo not drawn)", "6 nM (100) 11 nM %"]
]}
